Note to self: these molecules have IC50 reported for Collagenase 3 (Homo sapiens) in various publications.

Consider the following illustrative entries.
Query: Request the reported IC50 associated with Nc1c(N2CCc3ccc(CNC(=O)c4nc5sc6c(c5c(=O)[nH]4)CCCCCC6)cc3C2)c(=O)c1=O
Response: < 100 nM

Query: Would you kindly share the measured IC50 for CNC(=O)[C@@H](NC(=O)c1ccc(-c2cccc(CNC(=O)C3CCCNC3)c2)o1)C(C)C (some centres unmarked) ?
Response: 430 nM

Query: Which measured IC50 value corresponds to CNC(=O)[C@@H](NC(=O)c1ccc(-c2ccc(OCc3ccnn3C)cn2)o1)C1CCCCC1 ?
Response: 6 nM

Query: Which IC50 value is on record for CNC(=O)[C@@H](NC(=O)c1ccc(-c2ccc(NC(=O)c3ccc(C)o3)cc2)o1)C1CCCCC1 ?
Response: 57 nM

Query: Requested read-out: IC50. Entry: O=C(NCc1cccc(F)c1)c1nc2sc3c(c2c(=O)[nH]1)CCC3
Response: 100 to 20000 nM

Query: Item under review: O=C1COc2ccc(CNC(=O)c3ncnc4c(C(=O)NCC5CCCCC5)c[nH]c34)cc2N1 . Reported IC50?
Response: 101 to 20000 nM

Query: Item CNC(=O)[C@@H](NC(=O)c1ccc(-c2ccc(NC(=O)c3ccn(C)n3)cc2)o1)C1CCCCC1 has what recorded IC50?
Response: 31 nM

Query: Please look up its IC50: CCCN([C@@H](C(=O)NO)C(C)(C)C)S(=O)(=O)c1cccc(C(=O)OC)c1
Response: 6550 nM

Query: Param item = CNC(=O)[C@@H](NC(=O)c1ccc(-c2cccc(CNC(=O)c3occc3C)c2)o1)C1CCCCC1 ; retrieve measured IC50.
Response: 180 nM

Query: For the molecule CNC(=O)CN1CCN(S(=O)(=O)c2cc(F)c(Oc3ccc(Cl)cc3)c(F)c2)[C@@H](C(=O)NO)C1 , what IC50 is on record?
Response: < 50 nM

---
Query: Can you share its IC50? I mean this molecule: Cc1nc2c(=O)[nH]c(C(=O)NCc3ccc4c(c3)CN(c3c(N)c(=O)c3=O)CC4)nc2s1
Response: < 100 nM

Query: Which IC50 value belongs to O=C(CN1C(=O)C(Cc2ccc(Oc3ccccc3)cc2)Sc2ccccc21)NO (centres unmarked) ?
Response: 12 nM

Query: Using the record for CC#CCOc1ccc(S(=O)(=O)CC2(C(=O)NO)CCN(C(=O)N(C)c3ccccc3)CC2)cc1 , report its IC50.
Response: 3.2 nM

Query: // lookup IC50 for O=C(CC(CCn1nnc2ccccc2c1=O)C(=O)O)c1cc2ccc(OCC3CC3)cc2s1 (racemic)
Response: 1900 nM

Query: Fill in the blank: the reported IC50 of Cc1noc(-c2cc3cc(-c4nc(C(=O)NCc5nnc(C)[nH]5)[nH]c4C)ccc3[nH]2)n1 is ____.
Response: 17 nM

Query: What does the data say about its IC50? Entry: CC#CCOc1ccc(S(=O)(=O)CC2(C(=O)NO)CCN(C(=O)N3CCOCC3)CC2)cc1
Response: 600 nM

Query: Any idea what its IC50 is? The molecule is O=C1COc2ccc(CNC(=O)c3nc4ccc(F)cc4c(=O)[nH]3)cc2N1
Response: < 100 nM
